Target: CV S-protein construct 6 trimer TP31001F (SARS-CoV-2, UniProt P0DTC2 14-1208)
Experiment: SPR
Catalogue of Kd readings, one per entry.
Lab book: enter the figure in nM, no units written.

In the examples that follow, each entry is paired with its recorded Kd.
BINDER	Kd [nM]
variant 6-13 (Fc fusion) VHH: EVQLVESGGGLVQPGGSLRLSCAASGLTFNDYAMGWFRQAPGKEREFVAHIPRSTYSPYYADSVKGRFTISADNSKNTAYLQMNSLKPEDTAVYYCAFLVGPQGVDHGAFDVWGQGTLVTVSS	0.6
variant 6-25 (Fc fusion) VHH: EVQLVESGGGLVQPGGSLRLSCAASGLTFGTYTMGWFRQAPGKEREFVAAISRFGSTYYADSVKGRFTISADNSKNTAYLQMNSLKPEDTAVYYCARGGDYDFWSVDYMDVWGQGTLVTVSS	5.8

Kd in this record for variant 5-68 (Fc fusion) VHH: EVQLVESGGGLVQPGGSLRLSCAASGFTFDHYTMGWFRQAPGKEREFVAAISGSENVTSYADSVKGRFTISADNSKNTAYLQMNSLKPEDTAVYYCAAEPYIPVRTMRHMTFLTWGQGTLVTVSS : 4.8

Consider variant 5-65 (Fc fusion) VHH: EVQLVESGGGLVQPGGSLRLSCAASGNIDRLYAMGWFRQAPGKEREGVAAIDSDGSTDYADSVKGRFTISADNSKNTAYLQMNSLKPEDTAVYYCAALIDYGLGFPIEWGQGTLVTVSS . Its measured Kd is 421
